# experimental.protocol: logP determination by HPLC on reversed-phase column (C 18), EEC Directive 79/831 Annex V.A8
# Format: physicochemical
# conditions: reversed-phase C 18, 43° C., acid range (0.1% aqueous phosphoric acid, acetonitrile), marked a)
attribute.measured: logP

>  <sample.smiles>
O=C1C(O)=C(c2ccc(Cl)cc2)C(=O)N1Cc1cc(Cl)cc(Cl)c1

>  <test.result>
logP = 4.48^a)

$$$$
>  <sample.smiles>
O=C1C(O)=C(c2ccc(OC(F)(F)F)cc2)C(=O)N1Cc1ccc(OC(F)(F)F)cc1

>  <test.result>
logP = 4.48^a)

$$$$

---

# experimental.protocol: logP determination by HPLC on reversed-phase column (C 18), EEC Directive 79/831 Annex V.A8
# Format: physicochemical
# conditions: reversed-phase C 18, 43° C., acid range (0.1% aqueous phosphoric acid, acetonitrile), marked a)

>  <sample.smiles>
Cc1ccc(C2=C(O)C(=O)N(Cc3ccccc3F)C2=O)cc1

>  <logP>
logP = 3.51^a)

$$$$
>  <sample.smiles>
Cc1cc(C)c(C2=C(O)C(=O)N(Cc3ccccc3F)C2=O)c(C)c1

>  <logP>
logP = 3.51^a)

$$$$

---

# experimental.protocol: logP determination by HPLC on reversed-phase column (C 18), EEC Directive 79/831 Annex V.A8
# Format: physicochemical
# conditions: reversed-phase C 18, 43° C., acid range (0.1% aqueous phosphoric acid, acetonitrile), marked a)

>  <compound>
O=C1C(O)=C(c2cccc(OC(F)(F)F)c2)C(=O)N1CC(F)(F)F

>  <logP>
logP = 2.82^a)

$$$$
>  <compound>
CC1CCCC(N2C(=O)C(O)=C(c3ccccc3Cl)C2=O)C1 (stereo not shown) [Example 196]

>  <logP>
logP = 3.57^a)

$$$$
>  <compound>
CC1CCCC(N2C(=O)C(O)=C(c3ccccc3Cl)C2=O)C1 (stereo not shown) [Example 162]

>  <logP>
logP = 3.57^a)

$$$$
>  <compound>
O=C1C(O)=C(c2c(F)cccc2F)C(=O)N1c1ccc(C(F)(F)F)cc1

>  <logP>
logP = 3.48^a)

$$$$
>  <compound>
O=C1C(O)=C(c2ccccc2F)C(=O)N1Cc1ccccc1F

>  <logP>
logP = 2.82^a)

$$$$
>  <compound>
O=C1C(O)=C(c2cc(Cl)cc(Cl)c2)C(=O)N1Cc1ccccc1F

>  <logP>
logP = 3.48^a)

$$$$

---

# experimental.protocol: logP determination by HPLC on reversed-phase column (C 18), EEC Directive 79/831 Annex V.A8
# Format: physicochemical
# conditions: reversed-phase C 18, 43° C., acid range (0.1% aqueous phosphoric acid, acetonitrile), marked a)
# Protocol: a) The logP values given in table 1 were determined in accordance with EEC Directive 79/831 Annex V.A8 by HPLC (High Performance Liquid Chromatography) on a reversed-phase column (C 18). Temperature: 43° C. (a) Mobile phases for the determination in the acid range: 0.1% aqueous phosphoric acid, acetonitrile; linear gradient from 10% acetonitrile to 90% acetonitrile—corresponding measurement results are marked a) in table 1. […]
attribute.measured: logP

>  <compound>
O=C1C(O)=C(c2ccccc2Cl)C(=O)N1c1cccc(C(F)(F)F)c1

>  <test.result>
logP = 3.04^a)

$$$$
>  <compound>
O=C1C(O)=C(c2cc(Cl)cc(Cl)c2)C(=O)N1c1ccc(OC(F)(F)F)cc1

>  <test.result>
logP = 3.56^a)

$$$$
>  <compound>
O=C1C(O)=C(c2ccc(F)cc2C(F)(F)F)C(=O)N1C1CCCC(C(F)(F)F)C1 (centres unmarked)

>  <test.result>
logP = 3.56^a)

$$$$
>  <compound>
N#Cc1ccc(C2=C(O)C(=O)N(C3CCCC(C(F)(F)F)C3)C2=O)cc1 (centres unmarked)

>  <test.result>
logP = 3.04^a)

$$$$
>  <compound>
O=C1C(O)=C(c2ccc(OC(F)(F)F)cc2)C(=O)N1CC(F)(F)F

>  <test.result>
logP = 3.04^a)

$$$$

---

# experimental.protocol: logP determination by HPLC on reversed-phase column (C 18), EEC Directive 79/831 Annex V.A8
# Format: physicochemical
# conditions: reversed-phase C 18, 43° C., acid range (0.1% aqueous phosphoric acid, acetonitrile), marked a)
attribute.measured: logP

>  <compound>
CCOC(=O)CCN1C(=O)C(O)=C(c2cc(Cl)cc(Cl)c2)C1=O [Example 179]

>  <test.result>
logP = 2.80^a)

$$$$
>  <compound>
Cc1ccc(-c2ccc(Cl)cc2)cc1C1=C(O)C(=O)N(C(C)c2cccc(Cl)c2)C1=O (racemic) [Example 141]

>  <test.result>
logP = 4.84^a)

$$$$
>  <compound>
Cc1ccc(-c2ccc(Cl)cc2)cc1C1=C(O)C(=O)N(C(C)c2ccccc2Cl)C1=O (racemic) [Example 136]

>  <test.result>
logP = 4.75^a)

$$$$
>  <compound>
O=C1C(O)=C(c2cccc(C(F)(F)F)c2)C(=O)N1Cc1ccccc1F [Example 96]

>  <test.result>
logP = 3.48^a)

$$$$
>  <compound>
COC(=O)C1(N2C(=O)C(O)=C(c3ccccc3Cl)C2=O)CCCC(C)C1 (stereo not shown) [Example 166]

>  <test.result>
logP = 3.48^a)

$$$$
>  <compound>
Cc1ccc(-c2ccc(Cl)cc2)cc1C1=C(O)C(=O)N(Cc2cc(Cl)ccc2Cl)C1=O [Example 139]

>  <test.result>
logP = 4.84^a)

$$$$
>  <compound>
Cc1ccc(-c2ccc(Cl)cc2)cc1C1=C(O)C(=O)N(Cc2ccccc2OC(F)(F)F)C1=O [Example 133]

>  <test.result>
logP = 4.75^a)

$$$$
>  <compound>
O=C1C(O)=C(c2cc(F)cc(F)c2F)C(=O)N1C1CCCC(C(F)(F)F)C1 (stereo not shown) [Example 193]

>  <test.result>
logP = 3.42^a)

$$$$
>  <compound>
N#Cc1ccc(C2=C(O)C(=O)N(c3cc(Cl)cc(Cl)c3)C2=O)cc1 [Example 77]

>  <test.result>
logP = 2.80^a)

$$$$
>  <compound>
O=C1C(O)=C(c2cc(Cl)cc(Cl)c2)C(=O)N1c1ccc(C(F)(F)F)cc1 [Example 72]

>  <test.result>
logP = 3.42^a)

$$$$
>  <compound>
N#Cc1ccc(C2=C(O)C(=O)N(c3ccc(C(F)(F)F)cc3)C2=O)cc1 [Example 69]

>  <test.result>
logP = 2.80^a)

$$$$
